For each of the compounds below, state its IC50.
- measured target: PRMT5-MEP50 (Homo sapiens)
- Sequence (O14744 whole entry): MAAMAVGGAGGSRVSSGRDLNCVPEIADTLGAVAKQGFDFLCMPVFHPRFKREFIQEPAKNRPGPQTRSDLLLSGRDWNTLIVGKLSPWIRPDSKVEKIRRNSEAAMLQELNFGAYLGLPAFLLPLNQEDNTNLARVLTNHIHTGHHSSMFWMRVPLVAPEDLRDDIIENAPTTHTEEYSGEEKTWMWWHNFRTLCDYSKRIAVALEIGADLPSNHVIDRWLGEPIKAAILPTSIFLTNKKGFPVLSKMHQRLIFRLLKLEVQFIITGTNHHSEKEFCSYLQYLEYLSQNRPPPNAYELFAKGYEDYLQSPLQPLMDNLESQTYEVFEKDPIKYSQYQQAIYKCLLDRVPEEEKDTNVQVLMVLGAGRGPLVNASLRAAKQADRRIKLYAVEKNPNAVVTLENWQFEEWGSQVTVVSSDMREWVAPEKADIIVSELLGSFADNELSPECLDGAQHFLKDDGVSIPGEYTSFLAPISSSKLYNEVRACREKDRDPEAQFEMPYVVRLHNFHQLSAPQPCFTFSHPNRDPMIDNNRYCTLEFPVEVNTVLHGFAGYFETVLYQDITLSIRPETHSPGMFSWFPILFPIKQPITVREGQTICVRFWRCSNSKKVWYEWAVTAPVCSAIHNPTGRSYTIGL
- Sequence (Q9BQA1 whole entry partner): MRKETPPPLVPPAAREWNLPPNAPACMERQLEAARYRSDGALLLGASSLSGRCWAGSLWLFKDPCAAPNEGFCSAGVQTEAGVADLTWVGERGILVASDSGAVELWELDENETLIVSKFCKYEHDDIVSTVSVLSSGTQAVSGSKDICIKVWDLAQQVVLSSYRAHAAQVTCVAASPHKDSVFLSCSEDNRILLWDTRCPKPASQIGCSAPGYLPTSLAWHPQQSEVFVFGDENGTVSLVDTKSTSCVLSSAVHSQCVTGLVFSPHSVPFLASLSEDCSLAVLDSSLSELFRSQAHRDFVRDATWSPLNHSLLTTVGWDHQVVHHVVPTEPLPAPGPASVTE
- protocol description: PRMT5 Assay (PRMT5 biochemical assay)
- experimental setup: PRMT5 biochemical assay; read-out: PRMT5 IC50

Worked cases, answers included:
Cc1cn2ccc(CC[C@H]3C[C@@H](n4ccc5c(N)ncnc54)[C@H](O)[C@@H]3O)cc2n1; < 10 nM
CNc1ccc2ccc(OC[C@H]3O[C@@H](n4cc(CC5CCCC5)c5c(N)ncnc54)[C@H](O)[C@@H]3O)cc2n1; 10 to 100 nM
CNc1ccc2ccc(OC[C@H]3O[C@@H](n4cc(C5=CCNC5)c5c(N)ncnc54)[C@@H](F)[C@@H]3O)cc2n1; 100 to 1000 nM

Please look at the items below and tell me IC50 for each one, in order.
1. Nc1ncnc2c1ccn2[C@@H]1C[C@H](CCc2cccnc2)[C@@H](O)[C@H]1O
2. CNc1ccc2ccc(CC[C@H]3C[C@@H](n4cc(C5CCCCC5)c5c(N)ncnc54)[C@H](O)[C@@H]3O)cc2n1
3. CNc1ccc2ccc(OC[C@H]3O[C@@H](n4cc([C@H]5CCCO5)c5c(N)ncnc54)[C@@H](F)[C@@H]3O)cc2n1

10 to 100 nM
< 10 nM
100 to 1000 nM

Please look at the items below and tell me IC50 for each one, in order.
1. CNc1ccc2ccc(OC[C@H]3C[C@@H](n4cc(C5CCCC5)c5c(N)ncnc54)C[C@@H]3O)cc2n1
2. Nc1ncnc2c1ccn2[C@@H]1C[C@H](CCc2ccc3ccccc3c2)[C@@H](O)[C@H]1O
3. C=CCc1cn([C@@H]2O[C@H](COc3ccc4ccc(NC)nc4c3)[C@@H](O)[C@H]2O)c2ncnc(N)c12
4. Nc1ccc2ccc(CC[C@H]3C[C@@H](n4ccc5c(NCCc6ccccc6)ncnc54)[C@H](O)[C@@H]3O)cc2n1
5. CNc1ccc2cc(CC[C@H]3C[C@@H](n4ccc5c(N)ncnc54)[C@H](O)[C@@H]3O)ccc2n1

1. 100 to 1000 nM
2. > 1000 nM
3. < 10 nM
4. < 10 nM
5. < 10 nM

Please look at the items below and tell me IC50 for each one, in order.
1. Nc1ncnc2c1c([C@H]1CCCO1)cn2[C@@H]1O[C@H](COc2ccc3ccc(N4CCC4)nc3c2)[C@@H](O)[C@@H]1F
2. Nc1ncnc2c1ccn2[C@@H]1C[C@H](CCc2ccc3ccc(NCc4ccccc4)nc3c2)[C@@H](O)[C@H]1O
3. CNc1ccc2ccc(OC[C@H]3O[C@@H](n4cc(C5CCCC5)c5c(N)ncnc54)[C@H](O)[C@@H]3O)cc2n1
4. CN(C)Cc1cn([C@@H]2O[C@H](COc3ccc4ccc(N5CCC5)nc4c3)[C@@H](O)[C@@H]2F)c2ncnc(N)c12

["> 1000 nM", "< 10 nM", "< 10 nM", "> 1000 nM"]
